The values you see were collected from paper PMC9780825.

# experimentalTarget: K-ΔKv1.3 (N-terminally truncated human Kv1.3 tagged with mKate2) (Homo sapiens, UniProt P22001)
# Sequence (P22001 53-575 limits assumed, stated change not applied): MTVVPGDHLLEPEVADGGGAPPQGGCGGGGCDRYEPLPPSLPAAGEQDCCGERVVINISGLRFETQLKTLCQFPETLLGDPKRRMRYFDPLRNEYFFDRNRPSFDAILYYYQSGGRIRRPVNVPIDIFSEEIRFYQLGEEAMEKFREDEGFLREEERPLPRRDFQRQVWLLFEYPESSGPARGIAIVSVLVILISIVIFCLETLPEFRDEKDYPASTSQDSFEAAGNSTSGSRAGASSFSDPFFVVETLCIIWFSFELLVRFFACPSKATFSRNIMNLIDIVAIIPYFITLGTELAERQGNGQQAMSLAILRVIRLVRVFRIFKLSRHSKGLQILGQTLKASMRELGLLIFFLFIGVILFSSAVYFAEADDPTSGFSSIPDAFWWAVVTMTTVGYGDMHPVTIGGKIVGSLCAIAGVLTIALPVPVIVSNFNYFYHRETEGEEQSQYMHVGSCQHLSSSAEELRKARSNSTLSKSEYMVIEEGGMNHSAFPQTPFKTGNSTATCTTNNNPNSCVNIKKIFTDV
# protocolText: Fluorescent competitive binding assay (FCBA), displacement of A-HgTx from K-ΔKv1.3
# protocolConditions: Cheng-Prusoff from IC50; 2 nM A-HgTx; blockers 0.5–100 nM (peptides) or 1–20 mM (TEA), 30 min, 37 °C, 5% CO2, complete medium; HEK293 cells; mean ± SEM, three independent measurements; read-out: Kap, apparent dissociation constant of complexes formed by K-ΔKv1.3 with pore blocker
endpoint: pKd
Interpret pKd as the negative base-10 log of the concentration measured in mol/L.

Name the recorded pKd for CC[N+](CC)(CC)CC [TEA, tetraethylammonium] . 2.70
